Origin of the recorded values: paper PMC6010085

SUBJECT_OF_TEST: recombinant human protein tyrosine phosphate 1B (PTP1B, EC 3. 1. 3. 48) (Homo sapiens, UniProt P18031)
Sequence (P18031 1-435): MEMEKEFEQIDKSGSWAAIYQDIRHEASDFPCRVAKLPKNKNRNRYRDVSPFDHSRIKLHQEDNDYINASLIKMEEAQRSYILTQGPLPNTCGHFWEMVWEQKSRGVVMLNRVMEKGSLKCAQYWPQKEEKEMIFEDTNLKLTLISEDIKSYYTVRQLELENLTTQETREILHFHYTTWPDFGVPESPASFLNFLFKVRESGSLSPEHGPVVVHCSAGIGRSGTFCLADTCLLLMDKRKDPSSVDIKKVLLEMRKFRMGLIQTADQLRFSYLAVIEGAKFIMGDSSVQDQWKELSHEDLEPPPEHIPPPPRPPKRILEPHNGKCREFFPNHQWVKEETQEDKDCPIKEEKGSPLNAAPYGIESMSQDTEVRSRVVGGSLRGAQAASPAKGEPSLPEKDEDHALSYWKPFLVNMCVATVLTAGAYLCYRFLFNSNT
TEST_METHOD_NOTES: biochemical
Type: biochemical
MEASUREMENT_CONDITIONS: PTP1B Ki (inhibition constant), from Dixon plots
RECORDED_METRIC: pKi
Hey, just a heads up that pKi is the negative log base 10 of the concentration in molar.

Which measured pKi value corresponds to CC(C)=CCC/C(C)=C/Cc1c(O)cc2c(c1O)C(=O)C[C@@H](c1ccc(O)cc1)O2 [Compound 1, mimulone] ?
6.10
